This collection of values is drawn from ChEMBL document CHEMBL1137306.

- target.desc: Casein kinase II (Homo sapiens) (UniProt P67870+P68400+P19784)
- assay.remarks: Residual activity of human CK2 at 30 uM
- Format: protein-complex assay
In plain terms, low Activity, meaning strictly below 80%, gives 1, and everything else gives 0.

QUERY: Dear reviewer, please state whether CC1COc2c(N3CCN(C)CC3)c(F)cc3c(=O)c(C(=O)O)cn1c23 (centres undefined) has Activity strictly beneath 80%.
RESULT: 0

QUERY: Dear reviewer, please state whether "O=C(O)c1cnc2ccc(Oc3ccccc3)cc2c1O" has Activity strictly beneath 80%.
RESULT: 0

QUERY: Dear reviewer, please state whether "O=C(O)c1cnc2ccc(F)cc2c1O" has Activity strictly beneath 80%.
RESULT: 1

QUERY: Dear reviewer, please state whether "CC(=O)c1ccc2ncc(C(=O)O)c(O)c2c1" has Activity strictly beneath 80%.
RESULT: 0

QUERY: Dear reviewer, please state whether "O=C(O)c1cnc2c(Cl)cc(Cl)c(Cl)c2c1O" has Activity strictly beneath 80%.
RESULT: 1

QUERY: Dear reviewer, please state whether "O=C(O)c1cnc2c(Br)cccc2c1O" has Activity strictly beneath 80%.
RESULT: 1

QUERY: Dear reviewer, please state whether "O=C(O)c1cnc2c(Cl)cc(Cl)cc2c1O" has Activity strictly beneath 80%.
RESULT: 1

QUERY: Dear reviewer, please state whether "Cc1cc(C)c2c(c1)c(=O)c(C(=O)O)cn2C" has Activity strictly beneath 80%.
RESULT: 0

QUERY: Dear reviewer, please state whether "Cn1cc(C(=O)O)c(=O)c2ccccc21" has Activity strictly beneath 80%.
RESULT: 0

QUERY: Dear reviewer, please state whether "O=C(O)c1cnc2c(Cl)c(Cl)ccc2c1O" has Activity strictly beneath 80%.
RESULT: 1

QUERY: Dear reviewer, please state whether "O=C(O)c1cnc2ccc(I)cc2c1O" has Activity strictly beneath 80%.
RESULT: 0

QUERY: Dear reviewer, please state whether "CC(C)c1cccc2c(O)c(C(=O)O)cnc12" has Activity strictly beneath 80%.
RESULT: 0

QUERY: Dear reviewer, please state whether "COc1ccc2ncc(C(=O)O)c(O)c2c1" has Activity strictly beneath 80%.
RESULT: 0

###

- target.desc: Casein kinase II (Homo sapiens) (UniProt P67870+P68400+P19784)
- assay.remarks: Residual activity of human CK2 at 30 uM
- Format: protein-complex assay
In plain terms, low Activity, meaning strictly below 90%, gives Satisfied, and everything else gives Not satisfied.

QUERY: Dear reviewer, please state whether "COc1cc(OC)c2ncc(C(=O)O)c(O)c2c1" has Activity strictly beneath 90%.
RESULT: Not satisfied

QUERY: Dear reviewer, please state whether "Cc1c(Cl)ccc2c(O)c(C(=O)O)cnc12" has Activity strictly beneath 90%.
RESULT: Satisfied

QUERY: Dear reviewer, please state whether "CCCOc1ccc2ncc(C(=O)O)c(O)c2c1" has Activity strictly beneath 90%.
RESULT: Satisfied

QUERY: Dear reviewer, please state whether "Cc1ccc2ncc(C(=O)O)c(O)c2c1" has Activity strictly beneath 90%.
RESULT: Not satisfied

QUERY: Dear reviewer, please state whether "Cc1ccc2c(c1)c(=O)c(C(=O)O)cn2C" has Activity strictly beneath 90%.
RESULT: Not satisfied

QUERY: Dear reviewer, please state whether "CCOc1ccc2ncc(C(=O)O)c(O)c2c1" has Activity strictly beneath 90%.
RESULT: Not satisfied

QUERY: Dear reviewer, please state whether "O=C(O)c1cnc2ccc(Cl)cc2c1O" has Activity strictly beneath 90%.
RESULT: Satisfied

QUERY: Dear reviewer, please state whether "O=C(O)c1ccc2c(O)c(C(=O)O)cnc2c1" has Activity strictly beneath 90%.
RESULT: Satisfied

QUERY: Dear reviewer, please state whether "CC(C)Oc1cccc2c(O)c(C(=O)O)cnc12" has Activity strictly beneath 90%.
RESULT: Not satisfied

QUERY: Dear reviewer, please state whether "Cc1ccc(C)c2c(O)c(C(=O)O)cnc12" has Activity strictly beneath 90%.
RESULT: Satisfied

QUERY: Dear reviewer, please state whether "CCCCc1ccc2ncc(C(=O)O)c(O)c2c1" has Activity strictly beneath 90%.
RESULT: Satisfied

QUERY: Dear reviewer, please state whether "O=C(O)c1cnc2c(ccc3ccccc32)c1O" has Activity strictly beneath 90%.
RESULT: Satisfied

###

Exercise: state measured pKi for each of the compounds provided.
- target.desc: Casein kinase II (Homo sapiens, UniProt P19784+P67870+P68400)
- Sequence (P67870 whole entry): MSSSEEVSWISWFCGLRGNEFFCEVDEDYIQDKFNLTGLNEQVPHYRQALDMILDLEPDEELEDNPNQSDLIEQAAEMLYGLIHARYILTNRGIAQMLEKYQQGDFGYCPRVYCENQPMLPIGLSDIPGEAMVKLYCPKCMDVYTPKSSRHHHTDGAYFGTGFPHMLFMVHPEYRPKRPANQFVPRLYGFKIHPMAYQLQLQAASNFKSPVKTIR
- Sequence (P68400 whole entry): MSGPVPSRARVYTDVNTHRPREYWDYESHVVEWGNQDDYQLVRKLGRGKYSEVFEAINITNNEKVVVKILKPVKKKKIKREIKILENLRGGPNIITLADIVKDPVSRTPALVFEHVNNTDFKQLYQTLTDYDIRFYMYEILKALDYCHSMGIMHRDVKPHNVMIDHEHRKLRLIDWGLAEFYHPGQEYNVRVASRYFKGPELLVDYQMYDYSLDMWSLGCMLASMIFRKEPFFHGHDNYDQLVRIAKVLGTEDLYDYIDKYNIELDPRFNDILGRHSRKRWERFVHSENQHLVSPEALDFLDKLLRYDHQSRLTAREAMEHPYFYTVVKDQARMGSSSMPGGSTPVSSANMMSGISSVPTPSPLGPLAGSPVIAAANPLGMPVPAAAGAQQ
- Sequence (P19784 whole entry): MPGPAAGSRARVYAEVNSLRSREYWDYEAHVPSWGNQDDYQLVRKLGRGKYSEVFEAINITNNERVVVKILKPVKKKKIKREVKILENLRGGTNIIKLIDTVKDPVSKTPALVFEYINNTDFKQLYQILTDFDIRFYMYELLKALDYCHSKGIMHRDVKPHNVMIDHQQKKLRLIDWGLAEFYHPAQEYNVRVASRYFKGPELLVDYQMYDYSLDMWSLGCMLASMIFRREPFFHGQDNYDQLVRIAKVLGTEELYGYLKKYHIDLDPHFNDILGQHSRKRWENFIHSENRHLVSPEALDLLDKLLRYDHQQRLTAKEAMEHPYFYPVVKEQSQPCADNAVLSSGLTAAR
- assay.remarks: Binding affinity to human CK2 in presence of ATP
- Format: protein-complex assay
Conceptually, pKi converts a concentration in mol/L into minus its log10.

# compound "O=C(O)c1cnc2c(Cl)cc(Cl)c(Cl)c2c1O" ; its pKi = 7.22

# compound "O=C(O)c1cnc2c(ccc3ccccc32)c1O" ; its pKi = 6.55

###

- target.desc: Casein kinase II (Homo sapiens) (UniProt P67870+P68400+P19784)
- assay.remarks: Residual activity of human CK2 at 30 uM
- Format: protein-complex assay
Exercise: state measured Activity for each of the compounds provided.
Response body: numeric value in %, unit text excluded.

# compound "CCOc1cccc2c(O)c(C(=O)O)cnc12" ; its Activity = 103

# compound "CCc1cccc2c(O)c(C(=O)O)cnc12" ; its Activity = 86

# compound "Cc1cccc2c(O)c(C(=O)O)cnc12" ; its Activity = 74

# compound "O=C(O)c1cnc2ccc(Br)cc2c1O" ; its Activity = 76

# compound "CN(C)c1ccc2ncc(C(=O)O)c(O)c2c1" ; its Activity = 75

# compound "Cc1ccc2c(O)c(C(=O)O)cnc2c1C" ; its Activity = 56

# compound "O=C(O)c1cnc2cc(C(F)(F)F)ccc2c1O" ; its Activity = 78

# compound "Cc1cc(C)c2ncc(C(=O)O)c(O)c2c1" ; its Activity = 63

# compound CC1COc2c(F)c(F)cc3c(=O)c(C(=O)O)cn1c23 (centres undefined) ; its Activity = 88

# compound "O=C(O)c1cnc2c(F)cccc2c1O" ; its Activity = 70

# compound "O=C(O)c1cnc2c(Cl)cccc2c1O" ; its Activity = 37

# compound "O=C(O)c1cnc2c(C(=O)O)cccc2c1O" ; its Activity = 73

# compound "O=C(O)c1cnc2cc(Cl)cc(Cl)c2c1O" ; its Activity = 70

# compound "O=C(O)c1cnc2ccccc2c1O" ; its Activity = 103

###

- target.desc: Casein kinase II (Homo sapiens, UniProt P19784+P67870+P68400)
- assay.remarks: Inhibition of human CK2
attribute.measured: pIC50
Conceptually, pIC50 converts a concentration in mol/L into minus its log10.

# compound "O=C(O)c1cnc2c(ccc3ccccc32)c1O" ; its pIC50 = 6.00

# compound "O=C(O)c1cnc2c(Cl)cc(Cl)c(Cl)c2c1O" ; its pIC50 = 6.52

# compound "O=C(O)c1c[nH]c2c(Cl)c(Cl)ccc2c1=O" ; its pIC50 = 6.10

# compound "Cc1c(Cl)ccc2c(O)c(C(=O)O)cnc12" ; its pIC50 = 5.70
